Reference for the values: ChEMBL document CHEMBL3868618

The reader will find reported MIC values listed item by item below.
tested on: Staphylococcus aureus; assay: Antibacterial activity against methicillin-resistant Staphylococcus aureus 3167 measured after 24 hrs by two-fold serial dilution method; assay type: functional; settings: Staphylococcus aureus, 3167, 24 h
// note: answer is a bare numeric in µg/mL

The following molecules have reported results that may help.
structure smiles string: N=C(N)N/N=C/c1ccc(/C=C/C(=O)c2ccc(Cl)cc2Cl)cc1
endpoint: MIC
result: 8
--
structure smiles string: N=C(N)N/N=C/c1ccc(/C=C/C(=O)c2cccc(Cl)c2)cc1
endpoint: MIC
result: 4
--
structure smiles string: O=C(N/N=C/c1ccc(/C=C/C(=O)c2ccccc2F)cc1)c1ccncc1
endpoint: MIC
result: 64

Proceeding to the next molecule to report its MIC.
Summary for this molecule, "Cc1ccc(C(=O)/C=C/c2ccc(/C=N/NC(=O)c3ccncc3)cc2)c(C)c1" : MIC is 64

* * *

tested on: Staphylococcus aureus; assay: Antibacterial activity against methicillin-resistant Staphylococcus aureus 3167 measured after 24 hrs by two-fold serial dilution method; type: functional; settings: Staphylococcus aureus, 3167, 24 h
# MIC per entry
Express your answer in µg/mL, writing the number without its unit.

compound: N=C(N)N/N=C/c1ccc(/C=C/C(=O)c2ccccc2Br)cc1
endpoint: MIC
result: 8
--
compound: O=C(/C=C/c1ccc(/C=N/NC(=O)c2cccc(Cl)c2)cc1)c1ccc(Cl)cc1
endpoint: MIC
result: 32
--
compound: O=C(/C=C/c1ccc(/C=N/NC(=O)c2ccncc2)cc1)c1ccc(F)cc1
endpoint: MIC
result: 32
--
compound: N=C(N)N/N=C/c1ccc(/C=C/C(=O)c2ccccc2Cl)cc1
endpoint: MIC
result: 8
--
compound: N=C(N)N/N=C/c1ccc(/C=C/C(=O)c2ccccc2F)cc1
endpoint: MIC
result: 8
--
compound: COc1ccc(C(=O)/C=C/c2ccc(/C=N/NC(=N)N)cc2)cc1
endpoint: MIC
result: 16
--
compound: CCn1cc(C(=O)O)c(=O)c2cc(F)c(N3CCNCC3)cc21 [NORFLOXACIN]
endpoint: MIC
result: 8
--
compound: N=C(N)N/N=C/c1ccc(/C=C/C(=O)c2ccc(F)cc2)cc1
endpoint: MIC
result: 8

Entry "O=C(/C=C/c1ccc(/C=N/NC(=O)c2ccncc2)cc1)c1cccc(Br)c1" — recorded MIC = 32

Lab book: MIC of "Cc1ccc(C(=O)/C=C/c2ccc(/C=N/NC(=N)N)cc2)cc1" noted as 8

* * *

test system: Staphylococcus aureus; assay: Antibacterial activity against methicillin-resistant Staphylococcus aureus 3167 measured after 24 hrs by two-fold serial dilution method; assay type: functional; details: Staphylococcus aureus, 3167, 24 h
endpoint: MIC (µg/mL)
Just the number please, in µg/mL, no unit attached.

structure smiles string: N=C(N)N/N=C/c1ccc(/C=C/C(=O)c2ccc(Br)cc2)cc1
uom: µg/mL
MIC: 8

structure smiles string: N=C(N)N/N=C/c1ccc(/C=C/C(=O)c2ccc(Cl)cc2)cc1
uom: µg/mL
MIC: 4

structure smiles string: O=C(N/N=C/c1ccc(/C=C/C(=O)c2ccccc2Cl)cc1)c1ccccc1
uom: µg/mL
MIC: 64

Moving on to the next molecule.
The reported value for "Cc1ccc(C(=O)/C=C/c2ccc(/C=N/NC(=N)N)cc2)c(C)c1" in terms of MIC is 8

* * *

test system: Staphylococcus aureus; experiment: Antibacterial activity against Staphylococcus aureus 4220 measured after 24 hrs by two-fold serial dilution method; format: functional; settings: Staphylococcus aureus, 4220, 24 h
In this section we review reported MIC values for a set of compounds.
Quick note: give the figure in µg/mL, leave out the unit.

Solved entries:
compound: N=C(N)N/N=C/c1ccc(/C=C/C(=O)c2ccc(Cl)cc2)cc1
measured target: Staphylococcus aureus
MIC (µg/mL): 2
--
compound: N=C(N)N/N=C/c1ccc(/C=C/C(=O)c2cccc(Cl)c2)cc1
measured target: Staphylococcus aureus
MIC (µg/mL): 4

MIC reported for this compound "COc1c(N2C[C@@H]3CCCN[C@@H]3C2)c(F)cc2c(=O)c(C(=O)O)cn(C3CC3)c12" : 0.25

So, COc1c(N2CCNC(C)C2)c(F)cc2c(=O)c(C(=O)O)cn(C3CC3)c12 (stereo not given) ? Its MIC was 0.25

In plain terms, "COc1ccc(C(=O)/C=C/c2ccc(/C=N/NC(=N)N)cc2)cc1" has a documented MIC of 16

"O=C(/C=C/c1ccc(/C=N/NC(=O)c2cccc(Cl)c2)cc1)c1cccc(Cl)c1" yielded MIC of 32

Just so you know, measured MIC for "Cc1ccc(C(=O)/C=C/c2ccc(/C=N/NC(=N)N)cc2)cc1" came out at 4

Briefly, MIC measured for "N=C(N)N/N=C/c1ccc(/C=C/C(=O)c2ccccc2Br)cc1" : 4

Query "N=C(N)N/N=C/c1ccc(/C=C/C(=O)c2ccc(F)cc2)cc1" yields MIC of 4

The reported value for "O=C(N/N=C/c1ccc(/C=C/C(=O)c2ccccc2F)cc1)c1ccncc1" in terms of MIC is 64
